- System: myoglobin (Myo)
- methodSummary: Intact protein MS photoaffinity labeling screen, myoglobin
- Assay type: binding
- testSettings: intact protein MS after 10 min irradiation
measuredEndpoint: MS labeling percentage, Myo

A selection of reference data follows.
>>> endpointvalue("Cc1nc(CCNC(=O)CCC2(C)N=N2)sc1C [PhP092, Cc1nc(sc1C)CCNC(=O)CCC2(C)N=N2]")
"0.1%"
>>> endpointvalue("COc1ccc(OC)c(C(O)C(C)NC(=O)CCC2(C)N=N2)c1 (centres unmarked) [PhP038]")
"1.1%"
>>> endpointvalue("COC(=O)[C@@H](Cc1c[nH]c2ccccc12)NC(=O)CCC1(C)N=N1 [PhP036]")
"0%"
>>> endpointvalue("Cn1ccnc1-c1cc(NC(=O)CCC2(C)N=N2)n[nH]1 [PhP043, Cn1ccnc1-c2cc(n[nH]2)NC(=O)CCC3(C)N=N3]")
"0.1%"
>>> endpointvalue("CC1(CCC(=O)NCCCc2nc[nH]n2)N=N1 [PhP066, N1=NC1(C)CCC(=O)NCCCc2nc[nH]n2]")
"0.3%"
>>> endpointvalue("Cc1cc2ncn(CC(O)CNC(=O)CCC3(C)N=N3)c2cc1C (centres unmarked) [PhP067]")
"0.5%"

Each of the following entries comes with a recorded value; kindly state MS labeling percentage, Myo for each.
1. Cn1c(CCNC(=O)CCC2(C)N=N2)nc2ccccc21 [PhP020, c1cccc(c12)n(C)c(n2)CCNC(=O)CCC3(C)N=N3]
2. CC1(CCC(=O)Nc2ccc(N3CCCCC3)cc2C(N)=O)N=N1 [PhP054]

Result:
["0.3%", "0%"]
